Each record here notes measured solubility kinetic.
conditions: buffer; pH 7.4; 200.0 µM
Numeric answer only, unit µg/mL assumed.

Example results:
* c1ccc(CNc2ncnc3scc(-c4cccs4)c23)nc1 | 37.2
* CN(CC(=O)Nc1ccc(F)cc1Cl)Cc1cccs1 | 14.6
* CC1(c2ccccc2)NC(=O)N(CC(=O)N2CCN(S(=O)(=O)c3c(F)cccc3F)CC2)C1=O (centres undefined) | 25
* CNC(=S)N(CCc1c(C)[nH]c2ccc(Cl)cc12)Cc1cccnc1 | 46.2
* CCOc1ccccc1N1CC(C(=O)N2CCOCC2)CC1=O (centres undefined) | 44.6
* CC(=O)c1ccc(Oc2nc3c(c(=O)n(C)c(=O)n3C)n2C)cc1 | 9.1
* CN(CCc1ccccc1)Cc1nc(-c2cnccn2)no1 | 44
* CC(=O)NCCc1nc2cc(NC(=O)c3cccc([N+](=O)[O-])c3)ccc2n1C | 3.5
* OCCNC(=S)Nc1ccc2c(c1)OCCO2 | 37
* CC(NC(=O)c1ccc2ccccc2n1)c1ccccc1 (centres undefined) | 18.9

The recorded solubility kinetic for O=C(CSc1nc2ccccc2c(=O)n1CCCN1CCOCC1)NCCc1ccccc1 is 64.3

Record O=C(c1cccc(F)c1F)N1CCCc2ccccc21 , field solubility kinetic: 31.1

response.value for O=C(c1ccc([N+](=O)[O-])cc1[N+](=O)[O-])N1CCc2ccccc21 (field: solubility kinetic) = 4.2

Measured solubility kinetic of COc1ccc(C(=O)OCC(=O)N2CCCC2=O)c(OC)c1 : 40.3

The compound listed as CCN(C(=O)CSc1nc(C)nc2sc3c(c12)CCC3)C1CCS(=O)(=O)C1 (centres undefined) has a reported solubility kinetic of 5.4

###

conditions: buffer; pH 7.4; 200.0 µM
Listed here are compounds together with their documented solubility kinetic.

Below: 8 compounds and their reported solubility kinetic.
- COc1ccccc1OCCOCCN1CCCC1: 38.2 µg/mL
- O=C(CSc1ncnc2ccccc12)Nc1ccc2c(c1)OCCO2: 1.3 µg/mL
- O=C(/C=C/c1ccc(-c2ccccc2)cc1)NCc1cccnc1: < 0.3 µg/mL
- Cc1ccc(CN2CCN(C3CCOCC3)CC2CCO)cc1 (stereo not given): > 47.8 µg/mL
- CC1(C)CC(=O)C2=C(C1)Nc1ccccc1NC2c1ccccc1F (stereo not given): 10.5 µg/mL
- O=C(NCCc1ccccc1)C1CCN(C(=O)c2ccc(F)cc2)CC1: 47.4 µg/mL
- N#Cc1sc2nccc(Nc3ccccc3)c2c1N: < 0.1 µg/mL
- CC1=C(C(=O)OC2CCCCC2)C(c2ccccc2F)NC(=O)N1 (stereo not given): 0.5 µg/mL

Briefly, solubility kinetic measured for Cc1cccc(Cc2ncc(C(F)(F)F)cc2Cl)c1 : < 0.6 µg/mL

Query O=C(c1nc2ccccc2[nH]1)c1ccccc1[N+](=O)[O-] yields solubility kinetic of 32.3 µg/mL

Lookup result for CC(Nc1c[nH]c(=O)[nH]c1=O)c1ccccc1 (stereo not given) ; measured solubility kinetic: 22.3 µg/mL

response.value for COc1ccc(C(C)=O)cc1COc1cccnc1[N+](=O)[O-] (field: solubility kinetic) = 5.1 µg/mL

###

conditions: buffer; pH 7.4; 200.0 µM
Please assign a class to every record based on measured solubility kinetic, with ranges bucket 1 (below 4 µg/mL), bucket 2 (4 µg/mL to below 8 µg/mL), bucket 3 (8 µg/mL or more)

Example cases with answers are listed next.
* CCc1nc(SCC(=O)Nc2cccc3ccccc23)[nH]c(=O)c1C | bucket 1
* COc1ccc(NC(=O)CN2CCCCC2)cc1S(=O)(=O)N1CCCCC1.O=C(O)C(=O)O | bucket 3

Q: Tag the class for Nc1nc(-c2ccccc2)cc(-c2ccccc2)n1
Result: bucket 1

Q: Which of the defined bands does the recorded solubility kinetic of CCOC(=O)c1sc(NC(=O)C2CCCCC2)nc1C sit within?
Result: bucket 2

Q: Bin? COc1ccc2cc(C(C)C(=O)N3CCC(C)CC3)ccc2c1 (centres undefined)
Result: bucket 3

Q: Note: place this molecule into its band. Item: O=C(c1ccco1)N1CCN(Cc2nc3ccccc3[nH]2)CC1
Result: bucket 3

Q: Which class does CC1CCC(NC(=O)C2CC(=O)N(c3ccc(Cl)cc3)C2)CC1 (centres undefined) fall in?
Result: bucket 1

Q: State the class of the molecule shown: Cc1nc2ccccc2nc1Nc1cccc(Cl)c1
Result: bucket 3

Q: GET /class?item= CCCCCC(=O)Nc1ncc2c(n1)CC(c1cccs1)CC2=O (centres undefined)
Result: bucket 2

Q: // return the class label for Cc1ccc2c(c1)N(CC(=O)N1CCCC1)C(=O)CO2
Result: bucket 3

Q: Lab log: COc1cc2[nH]c(=S)n(Cc3cccs3)c(=O)c2cc1OC — assign solubility kinetic category
Result: bucket 1

Q: Bin? CCOc1ccc(NC(=O)COc2ccc3c(c2)OCO3)cc1
Result: bucket 2

Q: Returns: class label. Input: CC1CCCC(C)N1C(=O)CN1c2cccc3cccc(c23)S1(=O)=O (centres undefined)
Result: bucket 2

Q: Exercise: read the entry COC(=O)CNC(=O)c1cccc(Cl)c1 and state which class it falls under.
Result: bucket 3

Q: Looking at Cc1ccc(C2SCC(=O)N2Cc2ccccc2)cc1 (centres undefined) , which class would you pick?
Result: bucket 3

Q: Which solubility kinetic category applies to Cc1cc2c(cc1S(=O)(=O)N1CCOCC1)NC(=O)CO2 here?
Result: bucket 3

Q: Any idea which band CCOc1ccc(NC(=O)CN2C(=O)NC3(CCCCCC3)C2=O)cc1 is in?
Result: bucket 3

Q: Category of COc1cccc(CNC(=O)CCCC(=O)Nc2cccc([N+](=O)[O-])c2)c1 :
Result: bucket 3

Q: # bin label for O=C(c1ccc(S(=O)(=O)Nc2ccccc2)cc1)N1CCC1
Result: bucket 3

Q: // return the class label for CCCN1CCN(C(=O)c2ccc3nc(CC)c(CC)nc3c2)CC1
Result: bucket 3

Q: Please let me know in which category the item Cc1cc(S(=O)(=O)Nc2ccc(C(=O)NCC3CCCO3)cc2)ccc1F (centres undefined) belongs.
Result: bucket 1

Q: Form: Item = COc1ccc(CN2C(=O)c3ccc(C(=O)O)cc3C2=O)cc1 ; Class = ?
Result: bucket 3
